# assayed_target: T1, human IL-36R on cells (human, UniProt Q9HB29 20-575)
# T1 sequence (looked up): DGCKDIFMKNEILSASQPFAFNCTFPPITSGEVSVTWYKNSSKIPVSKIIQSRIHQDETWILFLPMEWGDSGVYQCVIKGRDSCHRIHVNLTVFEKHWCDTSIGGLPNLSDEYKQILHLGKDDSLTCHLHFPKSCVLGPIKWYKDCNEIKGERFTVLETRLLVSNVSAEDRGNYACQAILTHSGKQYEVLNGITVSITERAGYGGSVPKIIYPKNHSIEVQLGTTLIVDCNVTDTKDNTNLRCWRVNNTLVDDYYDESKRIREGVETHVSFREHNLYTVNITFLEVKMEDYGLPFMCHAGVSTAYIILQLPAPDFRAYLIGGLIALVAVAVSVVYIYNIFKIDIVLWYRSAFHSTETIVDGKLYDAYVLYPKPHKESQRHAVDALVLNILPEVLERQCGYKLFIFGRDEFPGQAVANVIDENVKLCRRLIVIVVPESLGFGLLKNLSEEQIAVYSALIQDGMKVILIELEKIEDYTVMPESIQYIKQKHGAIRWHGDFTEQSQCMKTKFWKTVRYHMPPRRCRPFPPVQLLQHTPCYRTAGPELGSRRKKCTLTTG
# experimental_protocol: cell-based or functional assay
Listing of recorded IC90, IL-6 release, NCI/ADR-RES cells, trun-IL-36a by entry.
Report only the number, with the unit nM understood.

Value of IC90, IL-6 release, NCI/ADR-RES cells, trun-IL-36a reported for the binder antibody 73C5 (antibody, V domains shown, Mouse monoclonal from hybridoma; also called 73C5C10; Mouse 73C5) VH: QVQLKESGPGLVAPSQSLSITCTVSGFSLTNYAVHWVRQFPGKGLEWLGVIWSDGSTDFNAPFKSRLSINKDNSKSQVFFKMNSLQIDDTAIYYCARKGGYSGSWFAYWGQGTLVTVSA VL: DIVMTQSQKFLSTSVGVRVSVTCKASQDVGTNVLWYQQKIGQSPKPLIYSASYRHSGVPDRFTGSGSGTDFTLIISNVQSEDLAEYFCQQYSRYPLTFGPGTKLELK is 19

Value of IC90, IL-6 release, NCI/ADR-RES cells, trun-IL-36a reported for the binder antibody 73F6 (antibody, V domains shown, Mouse monoclonal from hybridoma; also called 73F6F8; Mouse 73F6) VH: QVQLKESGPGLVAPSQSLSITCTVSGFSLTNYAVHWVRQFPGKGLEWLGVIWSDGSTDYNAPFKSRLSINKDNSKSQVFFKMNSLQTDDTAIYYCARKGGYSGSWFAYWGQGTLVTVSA VL: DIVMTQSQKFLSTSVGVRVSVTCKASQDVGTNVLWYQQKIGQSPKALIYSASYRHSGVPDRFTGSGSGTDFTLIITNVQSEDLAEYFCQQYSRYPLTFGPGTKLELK is 19

Value of IC90, IL-6 release, NCI/ADR-RES cells, trun-IL-36a reported for the binder antibody 33D10 (antibody, V domains shown, Mouse monoclonal from hybridoma; also called 33D10B12; Mouse 33D10) VH: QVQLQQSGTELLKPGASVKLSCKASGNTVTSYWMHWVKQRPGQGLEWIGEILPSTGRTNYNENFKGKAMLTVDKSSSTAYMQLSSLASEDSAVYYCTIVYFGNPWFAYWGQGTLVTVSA VL: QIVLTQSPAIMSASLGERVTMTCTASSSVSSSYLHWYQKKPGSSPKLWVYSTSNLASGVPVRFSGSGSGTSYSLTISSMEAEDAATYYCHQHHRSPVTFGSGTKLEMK is 0.8

Value of IC90, IL-6 release, NCI/ADR-RES cells, trun-IL-36a reported for the binder antibody 78C8 (antibody, V domains shown, Mouse monoclonal from hybridoma; also called 78C8D1; Mouse 78C8) VH: QVQLKESGPVLVAPSQSLSITCTVSGFSLTKFGVHWIRQTPGKGLEWLGVIWAGGPTNYNSALMSRLTISKDISQSQVFLRIDSLQTDDTAMYYCAKQIYYSTLVDYWGQGTSVTVSS VL: DVLLTQTPLSLPVSLGDQASISCRSSQNIVHSNGNTYLQWYLQKPGQSPKLLIYKVSNRFSGVPDRFSGSGSGTDFTLKISRVEAEDLGVYYCFQGSHVPFTFGAGTKLELK is 14

Value of IC90, IL-6 release, NCI/ADR-RES cells, trun-IL-36a reported for the binder antibody 81B4 (antibody, V domains shown, Mouse monoclonal from hybridoma; also called 81B4E11; Mouse 81B4) VH: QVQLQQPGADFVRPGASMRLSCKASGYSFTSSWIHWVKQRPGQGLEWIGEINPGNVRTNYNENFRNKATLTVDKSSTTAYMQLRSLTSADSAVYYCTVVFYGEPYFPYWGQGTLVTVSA VL: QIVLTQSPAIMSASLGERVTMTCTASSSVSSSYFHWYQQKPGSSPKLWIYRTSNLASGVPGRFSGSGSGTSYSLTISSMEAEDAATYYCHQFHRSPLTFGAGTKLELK is 0.8

Value of IC90, IL-6 release, NCI/ADR-RES cells, trun-IL-36a reported for the binder antibody 81A1 (antibody, V domains shown, Mouse monoclonal from hybridoma; also called 81A1D1; Mouse 81A1) VH: QVQLKESGPGLVAPSQSLFITCTVSGFSLSSYEINWVRQVPGKGLEWLGVIWTGITTNYNSALISRLSISKDNSKSLVFLKMNSLQTDDTAIYYCARGTGTGFYYAMDYWGQGTSVTVSS VL: DIQMTQTTSSLSASLGDRVTISCRASQDIYKYLNWYQQKPDGTLKLLIYYTSGLHSGVPSRFSGSGSGTDFSLTISNLEPEDIATYFCQQDSKFPWTFGGDTKLEIK is 17

Ref: patent US20200231684A1
